Target: D(2) dopamine receptor (Homo sapiens, UniProt P14416)
Sequence (P14416 whole entry): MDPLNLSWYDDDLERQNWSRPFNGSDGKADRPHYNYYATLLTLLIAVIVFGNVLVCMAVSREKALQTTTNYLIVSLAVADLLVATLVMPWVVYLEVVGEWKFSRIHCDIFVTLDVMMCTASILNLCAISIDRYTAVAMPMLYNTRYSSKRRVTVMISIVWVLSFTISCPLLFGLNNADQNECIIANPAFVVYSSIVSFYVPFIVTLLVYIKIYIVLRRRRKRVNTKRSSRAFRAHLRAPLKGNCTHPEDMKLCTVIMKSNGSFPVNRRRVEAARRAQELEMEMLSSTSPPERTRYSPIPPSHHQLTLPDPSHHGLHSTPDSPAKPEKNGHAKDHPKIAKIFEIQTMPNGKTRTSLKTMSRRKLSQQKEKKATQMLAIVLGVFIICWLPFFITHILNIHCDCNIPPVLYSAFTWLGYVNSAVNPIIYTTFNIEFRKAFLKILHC
Assay: Antagonist activity at human D2 receptor expressed in CHO cells assessed as inhibition of dopamine-induced calcium accumulation
Kindly apply the following: rule met if Ki is less than 0.4 µM, rule not met in every other case.

Some solved entries appear below for comparison.
molecule=Cc1ccc2c(c1)N=C(C1=CCN(C)CC1)c1cc(C)ccc1N2 label_value="rule not met"
molecule=COc1ccc2c(c1)C(C1=CCN(C)CC1)=Nc1cc(C)ccc1N2 label_value="rule met"
molecule=CCN1CC=C(C2=Nc3cc(Cl)ccc3Nc3ccc(F)cc32)CC1 label_value="rule met"
molecule=CN1CC=C(C2=Nc3cc(F)ccc3Nc3ccc(Cl)cc32)CC1 label_value="rule met"

Then this molecule:
Hello, is Ki of the following molecule strictly smaller than 0.4 µM? Clc1ccc2c(c1)N=C(N1CCNCC1)c1ccccc1N2 [N-DESMETHYLCLOZAPINE]
rule not met

----------
Molecular target: UniProt P20309
Sequence (P20309 whole entry): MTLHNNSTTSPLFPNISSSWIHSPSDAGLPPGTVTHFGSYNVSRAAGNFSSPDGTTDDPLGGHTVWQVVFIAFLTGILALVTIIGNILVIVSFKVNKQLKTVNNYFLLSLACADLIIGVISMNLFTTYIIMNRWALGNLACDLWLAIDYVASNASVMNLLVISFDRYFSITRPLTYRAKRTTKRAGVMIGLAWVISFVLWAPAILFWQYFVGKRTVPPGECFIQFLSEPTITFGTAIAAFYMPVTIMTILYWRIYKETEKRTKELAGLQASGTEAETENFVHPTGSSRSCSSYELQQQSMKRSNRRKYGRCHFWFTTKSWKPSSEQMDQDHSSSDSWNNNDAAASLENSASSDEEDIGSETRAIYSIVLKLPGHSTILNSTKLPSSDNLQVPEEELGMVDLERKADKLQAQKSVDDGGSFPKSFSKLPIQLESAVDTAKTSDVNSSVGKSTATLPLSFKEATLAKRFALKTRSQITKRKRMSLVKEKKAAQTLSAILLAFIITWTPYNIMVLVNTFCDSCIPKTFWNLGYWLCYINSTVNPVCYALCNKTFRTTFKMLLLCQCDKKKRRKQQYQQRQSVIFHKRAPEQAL
Test: Agonist activity at muscarinic M3 receptor (unknown origin) expressed in CHO cells
pEC50: −log10 of the molar value.
Reported values of pEC50 for individual entries

Sample answers from the record:
molecule=CN1CC=C(C2=Nc3cc(Cl)ccc3Nc3ccc(F)cc32)CC1 measurement_label=pEC50 result="< 5.00"
molecule="Clc1ccc2c(c1)N=C(N1CCNCC1)c1ccccc1N2 [N-DESMETHYLCLOZAPINE]" measurement_label=pEC50 result=6.17
molecule=Fc1ccc2c(c1)C(C1=CCNCC1)=Nc1cc(Cl)ccc1N2 measurement_label=pEC50 result="< 5.00"
molecule=Cc1ccc2c(c1)N=C(C1=CCN(C)CC1)c1cc(F)ccc1N2 measurement_label=pEC50 result="< 5.00"
molecule=CN1CC=C(C2=Nc3cc(Cl)ccc3Nc3ccccc32)CC1 measurement_label=pEC50 result=6.19

Which value of pEC50 has been reported for Cc1ccc2c(c1)N=C(C1=CCNCC1)c1cc(F)ccc1N2 in the records?
< 5.00

----------
Assay: Drug concentration in po dosed mouse plasma measured after 1 hr
Type: ADME, organism-based
MEASUREMENT_LABEL: concentration at 1 h (nM)
Express your answer in nM, writing the number without its unit.

Which value of concentration at 1 h has been reported for Cc1ccc2c(c1)N=C(C1=CCN(C)CC1)c1cc(F)ccc1N2 in the records?
360

----------
Target: D(1A) dopamine receptor (Homo sapiens, UniProt P21728)
Sequence (P21728 whole entry): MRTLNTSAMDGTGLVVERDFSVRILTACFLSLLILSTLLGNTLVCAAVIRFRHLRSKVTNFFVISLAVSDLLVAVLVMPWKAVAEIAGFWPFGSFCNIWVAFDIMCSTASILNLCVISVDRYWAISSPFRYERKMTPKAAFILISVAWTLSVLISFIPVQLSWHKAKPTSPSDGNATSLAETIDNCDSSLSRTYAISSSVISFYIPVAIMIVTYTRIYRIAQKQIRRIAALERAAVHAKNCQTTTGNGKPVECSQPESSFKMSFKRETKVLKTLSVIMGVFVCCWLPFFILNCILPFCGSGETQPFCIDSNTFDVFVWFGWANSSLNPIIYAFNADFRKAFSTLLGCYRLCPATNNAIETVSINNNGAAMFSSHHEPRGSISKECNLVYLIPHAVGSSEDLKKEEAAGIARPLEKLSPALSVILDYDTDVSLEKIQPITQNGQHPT
Experiment: Antagonist activity at human D1 receptor expressed in CHO cells assessed as inhibition of dopamine-induced calcium accumulation
MEASUREMENT_LABEL: Ki (nM)
Express your answer in nM, writing the number without its unit.

molecule=CN1CC=C(C2=Nc3cc(Cl)ccc3Nc3ccc(F)cc32)CC1 numeric_readout=35
molecule=Cc1ccc2c(c1)N=C(C1=CCN(C)CC1)c1cc(C)ccc1N2 numeric_readout=57

// next item, Ki requested
Which value of Ki has been reported for Clc1ccc2c(c1)N=C(N1CCNCC1)c1ccccc1N2 [N-DESMETHYLCLOZAPINE] in the records?
80
